Entries annotated with measured Potency
# method summary: qHTS Assay for Identifying Gametocytocidal Compounds (AID 743244); note: potency is the fitted concentration of half-maximal effect
# test settings: P. falciparum 3D7 stage III-V gametocytes, alamarBlue, 72 h
Results filed as inconclusive are left out. Calls of active or inactive are those of the source. Calls come from the whole dose curve; as a rule, active = well fitted curve in the direction sought with a large enough effect; inconclusive = small, poorly fitted or top-dose-only effect, or another doubt; inactive = no such curve, though single readings can be large or run the other way.

See these solved cases before continuing.
compound	endpoint name	result
Cc1ccc(-n2nc(C(C)(C)C)cc2NC(=O)Nc2ccc(OCCN3CCOCC3)c3ccccc23)cc1	Potency	12.6 µM (active)
OC(CN1CCC(Cc2ccc(F)cc2)CC1)c1ccc(Cl)cc1 (stereo unspecified)	Potency	7.43 µM (active)
CNCc1ccc(-c2[nH]c3cc(F)cc4c3c2CCNC4=O)cc1	Potency	29.6 µM (active)

Prompt: Can you look up the measured Potency of `CO[C@@H]1[C@H](N(C)C(=O)c2ccccc2)C[C@H]2O[C@]1(C)n1c3ccccc3c3c4c(c5c6ccccc6n2c5c31)C(=O)NC4` for me?
Response: 5.9 µM (active)

Prompt: Can you look up the measured Potency of `CCc1cc(Nc2nccc(-c3c(-c4ccc(OC)c(C(=O)Nc5c(F)cccc5F)c4)nc4ccccn34)n2)c(OC)cc1N1CCC(N2CCN(S(C)(=O)=O)CC2)CC1` for me?
Response: 3.72 µM (active)

Prompt: Can you look up the measured Potency of `CN([C@@H](Cc1ccc(OS(=O)(=O)c2cccc3cnccc23)cc1)C(=O)N1CCN(c2ccccc2)CC1)S(=O)(=O)c1cccc2cnccc12` for me?
Response: 18.7 µM (active)

====

# method summary: Cell Viability - SK-N-SH (AID 435);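 note: potency is the fitted concentration of half-maximal effect; compound exposure lasted 40 h at 37 °C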
# test settings: SK-N-SH neuroblastoma cell viability qHTS
Results filed as inconclusive are left out. Activity calls are given as the source filed them. Calls come from the whole dose curve.
Use one of these outcomes when replying: label 1 (active), label 0 (inactive)

Prompt: Just curious, what result did `NS(=O)(=O)c1cc2c(cc1Cl)NC=NS2(=O)=O` get here?
Response: label 0

Prompt: Just curious, what result did `O=c1[nH]cnc2[nH]ncc12` get here?
Response: label 0

Prompt: Just curious, what result did `NC(=O)c1cnccn1` get here?
Response: label 0

Prompt: Just curious, what result did `Cn1cnc([N+](=O)[O-])c1Sc1ncnc2nc[nH]c12` get here?
Response: label 1

====

# method summary: qHTS of pediatric cancer cell lines to identify multiple opportunities for drug repurposing: Confirmatory screen for Rh41 cells (AID 1347123);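 note: 48 h compound exposure; nearly all actives have a fitted effect of over 60% in size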
# test settings: Rh41 rhabdomyosarcoma cells, viability/cytotoxicity qHTS; series mostly up to 45.9 µM
Results filed as inconclusive are left out. Active and inactive are the calls of the source. The call rests on the fitted dose curve; in most records, active means well fitted cell-killing curve with a large enough effect; inconclusive means small, poorly fitted or top-dose-only effect; inactive means no such curve, though single readings can be large or run the other way.
Use one of these outcomes when replying: active, inactive

Consider the worked cases shown below.
compound	assigned category
Nc1nc2ccc(OC(F)(F)F)cc2s1	inactive
Nc1nc2[nH]cc(CCc3ccc(C(=O)N[C@@H](CCC(=O)O)C(=O)O)cc3)c2c(=O)[nH]1	inactive
Cc1cn[nH]c1	inactive
C#Cc1cccc(Nc2ncnc3cc(OCCOC)c(OCCOC)cc23)c1	active
CCN(CC)CCCC(C)Nc1ccnc2cc(Cl)ccc12 (stereo unspecified)	inactive

Prompt: Just curious, what result did NCCCC(N)(C(=O)O)C(F)F (stereo unspecified) get here?
Response: inactive

Prompt: Just curious, what result did `COCC(=O)NCC=Cc1ccc2ncnc(Nc3ccc(Oc4ccc(C)nc4)c(C)c3)c2c1` get here?
Response: active

Prompt: Just curious, what result did `NC(N)=NC(=O)c1nc(Cl)c(N)nc1N` get here?
Response: inactive

====

# method summary: qHTS Screen of the MIPE 4.0 Collection Against Ewings Sarcoma (TC71) (AID 1259253); note: nearly all actives have a fitted effect of over 40% in size
# test settings: TC71 Ewing sarcoma viability, CellTiter-Glo, 48 h; series mostly up to 45.8 µM
Results filed as inconclusive are left out. Active and inactive are the calls of the source. Calls come from the whole dose curve; as a rule, active = well fitted inhibition curve with a large enough effect; inconclusive = small, poorly fitted or top-dose-only effect; inactive = no such curve, though single readings can be large or run the other way.
Use one of these outcomes when replying: class 1 = active, class 0 = inactive

Consider the worked cases shown below.
compound	assigned category
Cc1c(CN2CCN(C(=O)C(C)C)CC2)sc2c(N3CCOCC3)nc(-c3cnc(N)nc3)nc12	class 1
N=c1nc(N2CCCCC2)cc(N)n1O	class 0
CC(C)C[C@H](NC(=O)[C@@H](O)[C@H](N)Cc1ccccc1)C(=O)O	class 1

Prompt: Just curious, what result did `Nc1ncnc2nc(-c3ccc(N4CCOCC4)nc3)cc(-c3cccc(Br)c3)c12` get here?
Response: class 1

Prompt: Just curious, what result did `COc1ccc(C2=N[C@H](c3ccc(Cl)cc3)[C@H](c3ccc(Cl)cc3)N2C(=O)N2CCNC(=O)C2)c(OC(C)C)c1` get here?
Response: class 1

Prompt: Just curious, what result did `CS(=O)(=O)Oc1ccc2c(NC(N)=O)c(C(=O)c3ccc(Cl)cc3Cl)oc2c1` get here?
Response: class 1

Prompt: Just curious, what result did O=C1CCC(N2C(=O)c3ccccc3C2=O)C(=O)N1 (stereo unspecified) get here?
Response: class 0

Prompt: Just curious, what result did `O=C(Nc1nc2ccccc2n1CCN1CCOCC1)c1cccc([N+](=O)[O-])c1` get here?
Response: class 1

====

# method summary: qHTS of pediatric cancer cell lines to identify multiple opportunities for drug repurposing: Primary screen for BT-37 cells (AID 1347094)
# test settings: BT-37 viability, CellTiter-Glo luminescence, 48 h; series mostly up to 57.3 µM
Records with an inconclusive call do not appear. Activity calls are given as the source filed them. Calls follow the shape of the dose curve; as a rule, active = well fitted cell-killing curve with a large enough effect; inconclusive = small, poorly fitted or top-dose-only effect; inactive = flat fitted curve, though single readings scatter.
Use one of these outcomes when replying: 1 (active), -1 (inactive)

Consider the worked cases shown below.
compound	assigned category
CC(C[N+](C)(C)C)OC(N)=O (centres undefined)	-1
Cc1cnc(Nc2ccc(OCCN3CCCC3)cc2)nc1Nc1cccc(S(=O)(=O)NC(C)(C)C)c1	-1
Cc1ccc(-n2nc(C(C)(C)C)cc2NC(=O)Nc2ccc(OCCN3CCOCC3)c3ccccc23)cc1	-1
CCC(C)N(C)C(=O)c1cc2ccccc2c(-c2ccccc2Cl)n1 (centres undefined)	-1
NC(=O)c1cnccn1	-1

Prompt: Just curious, what result did `NC(=O)c1ccc(I)c([N+](=O)[O-])c1` get here?
Response: -1

Prompt: Just curious, what result did `O=C1CCc2cc(OCCCCc3nnnn3C3CCCCC3)ccc2N1` get here?
Response: -1

Prompt: Just curious, what result did `O=C(Nc1nc2ccccc2n1CCN1CCOCC1)c1cccc([N+](=O)[O-])c1` get here?
Response: 1

Prompt: Just curious, what result did `NS(=O)(=O)c1cc2c(cc1Cl)NC=NS2(=O)=O` get here?
Response: -1

====

# method summary: Cell Proliferation Assay Versus the ED40515 IL2 Dependent ATL cell lines (AID 1053195)
# test settings: ED40515 IL2-dependent ATL cells
The source made the active and inactive calls. Calls follow the shape of the full dose curve.
endpoint name: Potency

compound	Potency
C[C@]12CCC(=O)C=C1CC[C@@H]1[C@@H]2[C@@H](O)C[C@@]2(C)[C@H]1CC[C@]2(O)C(=O)CO	14.8 µM (active)
COc1cc2c(cc1OC)CN(CCc1ccc(NC(=O)c3cccc4c(=O)c5cccc(OC)c5[nH]c34)cc1)CC2	16.6 µM (active)
OCCn1cc(-c2cnc3nnn(Cc4ccc5ncccc5c4)c3n2)cn1	18.7 µM (active)

Prompt: Can you look up the measured Potency of `CC1(C)CNc2cc(NC(=O)c3cccnc3NCc3ccncc3)ccc21` for me?
Response: 23.5 µM (active)

Prompt: Can you look up the measured Potency of COc1ccc(COc2cc3oc(=O)c4cc(C(C)O)ccc4c3cc2OC)cc1 (configuration not stated) for me?
Response: 18.7 µM (active)

====

# method summary: P-glycoprotein substrates identified in KB-3-1 adenocarcinoma cell line, qHTS therapeutic library screen (AID 1346986); note: nearly all actives have a fitted effect of over 60% in size;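 note: potency is the fitted concentration of half-maximal effect; potency is for cytotoxicity meaning loss of cell viability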
# test settings: KB-3-1 parental cells viability, CellTiter-Glo, 72 h; series mostly up to 44.5 µM
Results filed as inconclusive are left out. The source made the active and inactive calls. The call rests on the fitted dose curve; in most records, active means well fitted inhibition curve with a large enough effect; inconclusive means small, poorly fitted or top-dose-only effect; inactive means no such curve, though single readings can be large or run the other way.

structure smiles	Potency
O=C(Nc1nc2ccccc2n1CCN1CCOCC1)c1cccc([N+](=O)[O-])c1	inactive
O=C(C=Cc1ccc(/C=C/C(=O)Nc2ccc(C3=NCCN3)cc2)cc1)Nc1ccc(C2=NCCN2)cc1	inactive
COc1cc(Nc2ncc3c(n2)-c2ccc(Cl)cc2C(c2c(F)cccc2OC)=NC3)ccc1C(=O)O	103 nM (active)
NC(N)=NC(=O)c1nc(Cl)c(N)nc1N	inactive

====

# method summary: Quantitative High-Throughput drug screen in 47 multiple myeloma cell lines against the NCATS MIPE library collection: KMM1_JCRB cell viability assay (AID 1918960); note: nearly all actives have a fitted effect of over 30% in size
# test settings: KMM1 myeloma viability, CellTiter-Glo ATP luminescence, 48 h; series mostly up to 45.8 µM
Results filed as inconclusive are left out. Calls of active or inactive are those of the source. Calls follow the shape of the dose curve; as a rule, active = well fitted cell-killing curve with a large enough effect; inconclusive = small, poorly fitted or top-dose-only effect, or effect the other way; inactive = no such curve, though single readings can be large or run the other way.
Use one of these outcomes when replying: t = active, f = inactive

molecule	assigned category
Cn1cnc2c(F)c(Nc3ccc(Br)cc3Cl)c(C(=O)NOCCO)cc21	t
O=c1[nH]c(-c2ccc(C(F)(F)F)cc2)nc2c1CSCC2	f
COc1ccc([C@@H]2CC(=O)c3c(O)cc(O[C@@H]4O[C@H](CO[C@@H]5O[C@@H](C)[C@H](O)[C@@H](O)[C@@H]5O)[C@@H](O)[C@H](O)[C@@H]4O)cc3O2)cc1O	f
Cc1cccc(-c2[nH]c(C(C)(C)C)nc2-c2ccc3nccnc3c2)n1	t
CCN(CC)CCCC(C)Nc1ccnc2cc(Cl)ccc12 (centres undefined)	f
Clc1ccc(Nc2nnc(Cc3ccncc3)c3ccccc23)cc1	f
Cc1cc(SCc2sc(-c3ccc(C(F)(F)F)cc3)nc2C)ccc1OCC(=O)O	f
COc1ccc(C2=N[C@H](c3ccc(Cl)cc3)[C@H](c3ccc(Cl)cc3)N2C(=O)N2CCNC(=O)C2)c(OC(C)C)c1	f
c1ccc(-c2nn3c(c2-c2ccnc4cc(OCCN5CCOCC5)ccc24)CCC3)nc1	f
Cc1cn[nH]c1	t

Prompt: Just curious, what result did `CCCCNc1cc(C(=O)O)cc(S(N)(=O)=O)c1Oc1ccccc1` get here?
Response: f

Prompt: Just curious, what result did `CCCS(=O)(=O)Nc1ccc(F)c(C(=O)c2c[nH]c3ncc(-c4ccc(Cl)cc4)cc23)c1F` get here?
Response: f

Prompt: Just curious, what result did `COc1ccc(-c2ccc3c(N4CCOCC4)nc(N4C[C@@H](C)O[C@@H](C)C4)nc3n2)cc1CO` get here?
Response: t

Prompt: Just curious, what result did `CC(C)OC(=O)C1=CN(C(=O)c2ccc(F)c(F)c2)CC(C)(C)c2c1[nH]c1ccccc21` get here?
Response: f

Prompt: Just curious, what result did `CCn1c(-c2nonc2N)nc2cnc(Oc3cccc(NC(=O)c4ccc(OCCN5CCOCC5)cc4)c3)cc21` get here?
Response: t

Prompt: Just curious, what result did `Nc1nc2[nH]cc(CCc3ccc(C(=O)N[C@@H](CCC(=O)O)C(=O)O)cc3)c2c(=O)[nH]1` get here?
Response: t

Prompt: Just curious, what result did `O=C(Nc1cccnc1)N1CCC(Cc2cccc(Oc3ccc(C(F)(F)F)cn3)c2)CC1` get here?
Response: t

Prompt: Just curious, what result did `COc1nc(-c2ccc3c(c2)OCO3)n(-c2ccc(NC(=O)CSc3ccccc3)cc2)n1` get here?
Response: f

Prompt: Just curious, what result did `Nc1nc2ccc(OC(F)(F)F)cc2s1` get here?
Response: f

Prompt: Just curious, what result did `Cc1ccc(NC(=O)c2cccc(C(C)(C)C#N)c2)cc1Nc1ccc2ncn(C)c(=O)c2c1` get here?
Response: t

Prompt: Just curious, what result did `CC(C)C[C@H](NC(=O)[C@@H](O)[C@H](N)Cc1ccccc1)C(=O)O` get here?
Response: f

Prompt: Just curious, what result did `CNC(=O)c1ccc(N2C(=S)N(c3ccc(C#N)c(C(F)(F)F)c3)C(=O)C2(C)C)cc1F` get here?
Response: t

Prompt: Just curious, what result did `O=C(O)[C@@H](c1ccc(OCc2ccc3ccccc3n2)cc1)C1CCCC1` get here?
Response: f

Prompt: Just curious, what result did `Clc1cccc(Cl)c1NC1=NCCN1` get here?
Response: f

Prompt: Just curious, what result did `O=C(NOC[C@H](O)CO)c1ccc(F)c(F)c1Nc1ccc(I)cc1F` get here?
Response: t

Prompt: Just curious, what result did Oc1ccc(C2CNCCc3c2cc(O)c(O)c3Cl)cc1 (centres undefined) get here?
Response: f
